Each recorded value in this set is attributed to patent US12668600B2.

biological target: KRAS G12D (Homo sapiens, UniProt P01116, G12D); test: HTRF KRAS-SOS1 interaction assay, KRAS G12D; settings: binned ≤2 μM / >2 μM, read-out: Inhibition of KRAS G12D (IC50)
Sequence (P01116 1-188 isoform P01116-2 G12D): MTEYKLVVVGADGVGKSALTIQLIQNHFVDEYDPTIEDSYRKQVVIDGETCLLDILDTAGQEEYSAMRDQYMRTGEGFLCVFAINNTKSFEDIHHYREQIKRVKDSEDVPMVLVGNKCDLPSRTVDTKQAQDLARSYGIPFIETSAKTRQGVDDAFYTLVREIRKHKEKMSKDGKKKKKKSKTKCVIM
pIC50: −log10 of the molar value.
pIC50 overview
experimental.endpoint: pIC50

[[record]]
compound = "N#Cc1c(N)sc2cccc(-c3c(Cl)c4c5c(nc(OC[C@@]67CCCN6C[C@H](F)C7)nc5c3F)N([C@@H](c3cccnc3N)C(F)F)CCO4)c12 (single isomer, unassigned) [Compound 672]"
experimental_endpoint = "pIC50"
measured_result = "≥ 5.70"

[[record]]
compound = "N#Cc1c(N)sc2c(F)ccc(-c3c(C(F)(F)F)c4c5c(nc(OC[C@@]67CCCN6C[C@H](F)C7)nc5c3F)N([C@H](CCC3COCCO3)c3cccnc3N)CCO4)c12 (single isomer, unassigned) [Compound 701]"
experimental_endpoint = "pIC50"
measured_result = "≥ 5.70"

[[record]]
compound = "N#Cc1c(N)sc2c(F)ccc(-c3c(C(F)(F)F)c4c5c(nc(OC[C@@]67CCCN6C[C@H](F)C7)nc5c3F)N([C@H](CCC(F)(F)F)c3cc(Cl)cnc3N)CCO4)c12 [Compound 874]"
experimental_endpoint = "pIC50"
measured_result = "≥ 5.70"

